- tgt: recombinant cynomolgus monkey CD3ε/δ heterodimer (cynomolgus monkey) (UniProt Q95LI5)
- Sequence (Q95LI5 22-117, stated change not applied, chain 1 of 2): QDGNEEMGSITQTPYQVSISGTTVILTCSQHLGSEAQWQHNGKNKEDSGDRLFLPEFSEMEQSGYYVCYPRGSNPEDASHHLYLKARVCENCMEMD
- Sequence (Q95LI8 22-105, stated change not applied, chain 2 of 2, further chain): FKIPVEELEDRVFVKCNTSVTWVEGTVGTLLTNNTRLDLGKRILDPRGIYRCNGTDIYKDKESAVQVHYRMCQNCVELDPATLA
- test: ELISA, coated CD3ε/δ
// classify: if (Absorbance (450 nm) < 0.1) condition met else condition not met

## Input I wonder whether H02 (antibody, human IgG1, lambda, L234A L235A, V domains shown) VH: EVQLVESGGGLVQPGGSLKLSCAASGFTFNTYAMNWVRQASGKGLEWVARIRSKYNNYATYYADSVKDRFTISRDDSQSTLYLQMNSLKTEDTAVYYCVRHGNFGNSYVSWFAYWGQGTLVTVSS VL: QAVVTQEPSLTVSPGGTVTLTCRSSTGAVTTSNYANWFQQKPGQAPRTLIYGTNKRAPWTPARFSGSLLGDKAALTLSGAQPEDEAEYYCALWYSNLWVFGGGTKLTVLG has Absorbance (450 nm) below 0.1. Can you tell?
## Output condition met

## Input I wonder whether E12 (antibody, human IgG1, lambda, L234A L235A, V domains shown) VH: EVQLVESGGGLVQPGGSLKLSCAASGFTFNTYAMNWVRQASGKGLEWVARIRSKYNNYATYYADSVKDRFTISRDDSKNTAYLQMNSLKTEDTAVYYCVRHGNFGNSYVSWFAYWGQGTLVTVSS VL: QAVVTQEPSLTVSPGGTVTLTCRSSTGAVTTSNYANWVQQKPGQAPRTLIGGTNKRAPWTPARFSGSLLGDKAALTLSGAQPEDEAEYYCALWYSNLWVFGGGTKLTVLG has Absorbance (450 nm) below 0.1. Can you tell?
## Output condition met

## Input I wonder whether C10 (antibody, human IgG1, lambda, L234A L235A, V domains shown) VH: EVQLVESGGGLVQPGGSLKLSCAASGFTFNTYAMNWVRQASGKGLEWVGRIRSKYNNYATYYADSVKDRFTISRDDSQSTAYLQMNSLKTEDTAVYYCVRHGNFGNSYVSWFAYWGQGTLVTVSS VL: QAVVTQEPSLTVSPGGTVTLTCRSSTGAVTTSNYANWVQQKPGQAPRTLIYGTNKRAPWTPARFSGSLLGDKAALTLSGAQPEDEAEYYCALWYSNLWVFGGGTKLTVLG has Absorbance (450 nm) below 0.1. Can you tell?
## Output condition met

## Input I wonder whether F10 (antibody, human IgG1, lambda, L234A L235A, V domains shown) VH: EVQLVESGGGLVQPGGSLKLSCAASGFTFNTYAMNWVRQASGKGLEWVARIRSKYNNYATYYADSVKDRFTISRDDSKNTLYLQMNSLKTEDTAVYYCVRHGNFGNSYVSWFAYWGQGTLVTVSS VL: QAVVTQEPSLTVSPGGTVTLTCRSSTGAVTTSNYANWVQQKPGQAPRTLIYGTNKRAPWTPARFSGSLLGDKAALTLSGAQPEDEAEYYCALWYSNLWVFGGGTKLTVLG has Absorbance (450 nm) below 0.1. Can you tell?
## Output condition met

## Input I wonder whether F01 (antibody, human IgG1, lambda, L234A L235A, V domains shown) VH: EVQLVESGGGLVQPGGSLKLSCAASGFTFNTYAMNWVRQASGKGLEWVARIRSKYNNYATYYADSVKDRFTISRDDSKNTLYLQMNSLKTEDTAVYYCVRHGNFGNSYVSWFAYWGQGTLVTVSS VL: QAVVTQEPSLTVSPGGTVTLTCRSSTGAVTTSNYANWFQQKPGQAPRTLIYGTNKRAPWTPARFSGSLLGGKAALTLSGAQPEDEAEYYCALWYSNLWVFGGGTKLTVLG has Absorbance (450 nm) below 0.1. Can you tell?
## Output condition met

## Input I wonder whether A14 (antibody, human IgG1, lambda, L234A L235A, V domains shown) VH: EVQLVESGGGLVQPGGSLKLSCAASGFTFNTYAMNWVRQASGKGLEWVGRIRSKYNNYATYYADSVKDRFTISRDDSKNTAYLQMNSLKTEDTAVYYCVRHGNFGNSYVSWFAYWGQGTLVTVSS VL: QAVVTQEPSLTVSPGGTVTLTCRSSTGAVTTSNYANWVQQKPGQAPRGLIYGTNKRAPWTPARFSGSLLGDKAALTLSGAQPEDEAEYYCALWYSNLWVFGGGTKLTVLG has Absorbance (450 nm) below 0.1. Can you tell?
## Output condition not met

## Input I wonder whether H09 (antibody, human IgG1, lambda, L234A L235A, V domains shown) VH: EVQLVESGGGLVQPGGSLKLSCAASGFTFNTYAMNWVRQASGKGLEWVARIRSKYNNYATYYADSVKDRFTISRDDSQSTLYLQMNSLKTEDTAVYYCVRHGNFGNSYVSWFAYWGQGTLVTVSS VL: QAVVTQEPSLTVSPGGTVTLTCRSSTGAVTTSNYANWVQQKPGQAPRTLIYGTNKRAPWTPARFSGSLLGGKAALTLSGAQPEDEAEYYCALWYSNLWVFGGGTKLTVLG has Absorbance (450 nm) below 0.1. Can you tell?
## Output condition not met
